List of Weed suppression rate (%) Lindemia pyxidaria values.
System: Lindernia pyxidaria
methodDescription: Test Example 12: herbicidal effect test by treatment during growing period in paddy field
Assay type: in vivo
measurementParameters: 120 g/10a; treatment seven days after sowing in flooded paddy pot; assessed 14 days after treatment
A number alone suffices; assume %.

Worked examples follow.
cpdSmiles	testValue
Cc1ccc(N(C(=O)n2cnn(S(=O)(=O)c3c(F)c(F)c(F)c(F)c3F)c2=O)C(C)C)c(F)c1	80
Cc1cc(C)c(S(=O)(=O)n2ncn(C(=O)N(c3ccc(F)c(F)c3F)C(C)C)c2=O)c(C)c1	70
CC(C)N(C(=O)n1cnn(S(=O)(=O)N(C)C)c1=O)c1ccc(F)cc1Cl	80
Cc1cc(N(C(=O)n2cnn(S(=O)(=O)C(C)C)c2=O)C(C)C)no1	80

INPUT: // lookup Weed suppression rate (%) Lindemia pyxidaria | system=Lindernia pyxidaria | key= `CC(C)N(C(=O)n1cnn(S(=O)(=O)c2ccccc2F)c1=O)c1cccc(F)c1F`
OUTPUT: 80

INPUT: # returns recorded Weed suppression rate (%) Lindemia pyxidaria (system: Lindernia pyxidaria) for `CC(C)N(C(=O)n1cnn(S(=O)(=O)c2ccccc2F)c1=O)c1ccc(Br)cc1Cl`
OUTPUT: 70

INPUT: Item: `Cc1cc(C)c(S(=O)(=O)n2ncn(C(=O)N(c3ccc(F)cc3C)C(C)C)c2=O)c(C)c1` Test system: Lindernia pyxidaria Read-out: Weed suppression rate (%) Lindemia pyxidaria Value: ?
OUTPUT: 100

###

System: Echinochloa crus-galli
methodDescription: Test Example 12: herbicidal effect test by treatment during growing period in paddy field
Type: in vivo
measurementParameters: 120 g/10a; treatment seven days after sowing in flooded paddy pot; assessed 14 days after treatment
observedProperty: Weed suppression rate (%) Echinochloa crus-galli

compound	systemName	testValue
CC(C)N(C(=O)n1cnn(S(=O)(=O)C2CC2)c1=O)c1ccc(F)c(F)c1F [Compound 11-194]	Echinochloa crus-galli	100%
CC(C)N(C(=O)n1cnn(S(C)(=O)=O)c1=O)c1ccc(Cl)cc1F [Compound 11-20]	Echinochloa crus-galli	70%
CC(C)N(C(=O)n1cnn(S(=O)(=O)C(C)C)c1=O)c1c(F)cccc1F [Compound 11-61]	Echinochloa crus-galli	100%
CC(C)N(C(=O)n1cnn(S(=O)(=O)c2cccs2)c1=O)c1ccc(F)cc1F [Compound 11-1022]	Echinochloa crus-galli	90%
CC(C)N(C(=O)n1cnn(S(=O)(=O)C2CCCCC2)c1=O)c1c(F)cc(F)cc1F [Compound 11-298]	Echinochloa crus-galli	100%

INPUT: Recorded Weed suppression rate (%) Echinochloa crus-galli of Cc1cc(C)c(S(=O)(=O)n2ncn(C(=O)N(c3ccc(F)cc3F)C(C)C)c2=O)c(C)c1 [Compound 11-863] , please.
OUTPUT: 90%

###

Tested on: Monochoria vaginalis
methodDescription: Test Example 12: herbicidal effect test by treatment during growing period in paddy field
Format: in vivo
measurementParameters: 120 g/10a; treatment seven days after sowing in flooded paddy pot; assessed 14 days after treatment
observedProperty: Weed suppression rate (%) Monochoria vaginalis
Respond with the bare value in %.

cpdSmiles	unitInfo	testValue
CC(C)N(C(=O)n1cnn(S(=O)(=O)C2CCCCC2)c1=O)c1ccccc1F	%	100
CC(C)N(C(=O)n1cnn(S(=O)(=O)c2ccc(C(C)(C)C)cc2)c1=O)c1c(F)cc(F)cc1F	%	70
CC(C)N(C(=O)n1cnn(S(=O)(=O)c2cccc(Cl)c2)c1=O)c1ccc(F)cc1F	%	90
CC(C)N(C(=O)n1cnn(S(=O)(=O)C(C)C)c1=O)c1c(F)cc(F)cc1F	%	100
CC(C)N(C(=O)n1cnn(S(=O)(=O)C2CC2)c1=O)c1ccc(F)c(F)c1F	%	100

# ---- query molecule ----
INPUT: Can you share its Weed suppression rate (%) Monochoria vaginalis? I mean this molecule: `Cc1cc(C)c(S(=O)(=O)n2ncn(C(=O)N(c3ccccc3F)C(C)C)c2=O)c(C)c1`
OUTPUT: 80
